Test system: human gastric cancer cells MGC-803
Assay comment: Cell proliferation (MTT) assay, MGC-803
Type: cell-based
Assay context: Homo sapiens, MGC-803; antiproliferative, MTT, 48 h exposure; read-out: IC50 MGC-803
Readout name: pIC50
Value format note: pIC50 is -log10 of concentration (mol/L); just state the number.

Annotate the molecule COc1cccc2c1C(=O)c1c(O)c3c(c(O)c1C2=O)C[C@@](O)(C(=O)CO)C[C@@H]3O[C@H]1C[C@H](N)[C@H](O)[C@H](C)O1 [AMD, Doxorubicin, reference compound] with its measured pIC50.
6.17

----------
System: human melanoma cell A375
Assay comment: Cell proliferation (MTT) assay, A375
Format: cell-based
Assay context: Homo sapiens, A-375, 48 h, read-out: IC50 A375, antiproliferative, MTT, 48 h exposure
Readout name: pIC50
Value format note: pIC50 is -log10 of concentration (mol/L); just state the number.

Study these solved cases before continuing.
Annotate the compound "O=S(=O)(F)/C=C/c1ccc(-c2ccccc2)cc1" with its measured pIC50.
5.23

Annotate the compound "Cc1ccc(S(=O)(=O)n2cc(/C=C/S(=O)(=O)F)cn2)cc1" with its measured pIC50.
4.56

Annotate the compound "O=S(=O)(F)/C=C/c1cnn(-c2ccccc2)c1" with its measured pIC50.
5.04

Moving on to the next compound.
Annotate the compound "O=S(=O)(F)/C=C/c1ccc(F)cc1" with its measured pIC50.
5.22

----------
System: human melanoma cell A375
Assay comment: Cell proliferation (MTT) assay, A375
Format: cell-based
Assay context: Homo sapiens, A-375, 48 h, antiproliferative, MTT, 48 h exposure; read-out: IC50 A375
Readout name: IC50 (nM)
Reply with just the number (in nM).

Annotate the molecule COc1cccc2c1C(=O)c1c(O)c3c(c(O)c1C2=O)C[C@@](O)(C(=O)CO)C[C@@H]3O[C@H]1C[C@H](N)[C@H](O)[C@H](C)O1 [AMD, Doxorubicin, reference compound] with its measured IC50.
520

----------
Assayed system: telomerase (Homo sapiens, UniProt O14746)
Construct: endogenous in cells; host or cells: A375 human melanoma cells
Sequence (O14746 whole entry): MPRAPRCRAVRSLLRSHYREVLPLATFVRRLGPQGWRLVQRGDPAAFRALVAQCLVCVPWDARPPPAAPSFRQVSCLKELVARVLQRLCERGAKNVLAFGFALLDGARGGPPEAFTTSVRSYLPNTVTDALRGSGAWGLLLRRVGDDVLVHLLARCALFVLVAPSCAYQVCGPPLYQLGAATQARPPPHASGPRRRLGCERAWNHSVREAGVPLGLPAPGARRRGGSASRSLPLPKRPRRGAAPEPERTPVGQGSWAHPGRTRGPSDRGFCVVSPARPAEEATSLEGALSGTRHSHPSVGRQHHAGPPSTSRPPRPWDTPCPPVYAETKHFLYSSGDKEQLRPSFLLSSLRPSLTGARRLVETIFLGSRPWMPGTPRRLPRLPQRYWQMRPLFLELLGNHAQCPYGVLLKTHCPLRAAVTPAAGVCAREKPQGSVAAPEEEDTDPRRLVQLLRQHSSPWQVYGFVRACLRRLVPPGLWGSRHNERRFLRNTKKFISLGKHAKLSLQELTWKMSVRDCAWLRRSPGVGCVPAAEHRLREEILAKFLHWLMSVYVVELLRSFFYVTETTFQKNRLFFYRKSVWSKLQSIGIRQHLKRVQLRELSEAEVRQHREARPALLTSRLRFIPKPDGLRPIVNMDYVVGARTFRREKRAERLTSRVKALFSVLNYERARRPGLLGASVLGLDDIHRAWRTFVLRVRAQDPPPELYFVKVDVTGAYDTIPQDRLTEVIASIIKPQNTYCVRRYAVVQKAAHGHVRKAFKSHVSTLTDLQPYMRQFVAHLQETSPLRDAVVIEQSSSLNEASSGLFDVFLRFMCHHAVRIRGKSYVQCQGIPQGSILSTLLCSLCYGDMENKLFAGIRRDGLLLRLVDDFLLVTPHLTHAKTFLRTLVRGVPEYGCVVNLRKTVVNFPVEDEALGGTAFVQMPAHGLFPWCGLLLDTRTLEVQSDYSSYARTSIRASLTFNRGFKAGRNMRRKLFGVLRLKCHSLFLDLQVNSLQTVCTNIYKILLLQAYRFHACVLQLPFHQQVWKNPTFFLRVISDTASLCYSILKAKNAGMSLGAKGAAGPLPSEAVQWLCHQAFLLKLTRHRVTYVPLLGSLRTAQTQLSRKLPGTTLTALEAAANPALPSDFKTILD
Assay comment: Telomerase activity TRAP-PCR-ELISA assay (A375 cell extract)
Assay type: biochemical
Assay context: IC50 inhibitory activity against telomerase, TRAP-PCR-ELISA, A375 cells, 24 h treatment
Readout name: pIC50
Value format note: pIC50 is -log10 of concentration (mol/L); just state the number.

Annotate the molecule "O=S(=O)(F)/C=C/c1cnn(-c2ccccc2)c1" with its measured pIC50.
5.67

Annotate the molecule "O=C(O)c1ccc(/C=C/S(=O)(=O)F)cc1" with its measured pIC50.
4.40

Annotate the molecule "CS(=O)(=O)c1cccc(/C=C/S(=O)(=O)F)c1" with its measured pIC50.
5.59

Annotate the molecule "O=[N+]([O-])c1cccc(/C=C/S(=O)(=O)F)c1" with its measured pIC50.
5.65

Further cases:
Annotate the molecule "O=[N+]([O-])c1ccc(/C=C/S(=O)(=O)F)cc1" with its measured pIC50.
5.56

----------
Tested on: human gastric cancer cells MGC-803
Assay comment: Cell proliferation (MTT) assay, MGC-803
Type: cell-based
Assay context: Homo sapiens, MGC-803, 48 h, read-out: IC50 MGC-803
IC50 values, listed per item
Reply with just the number (in µM).

Study these solved cases before continuing.
Annotate the molecule O=S(=O)(F)/C=C/c1ccc(Cl)cc1 [Compound 7] with its measured IC50.
12.9

Annotate the molecule O=S(=O)(F)/C=C/c1cc(Cl)cc(Cl)c1 [Compound 69] with its measured IC50.
25.1

Annotate the molecule Cc1ccc(S(=O)(=O)n2cc(/C=C/S(=O)(=O)F)cn2)cc1 [Compound 61] with its measured IC50.
27.1

Further cases:
Annotate the molecule COc1cc(/C=C/S(=O)(=O)F)cc(OC)c1 [Compound 67] with its measured IC50.
16.1

Annotate the molecule O=S(=O)(F)/C=C/c1cccc(/C=C/S(=O)(=O)F)c1 [Compound 70] with its measured IC50.
3.15

Annotate the molecule O=S(=O)(F)/C=C/c1ccc(Br)cc1 [Compound 8] with its measured IC50.
17.2

Annotate the molecule O=S(=O)(F)/C=C/c1ccc(F)cc1 [Compound 6] with its measured IC50.
44.2

Annotate the molecule COc1ccc(Cl)cc1/C=C/S(=O)(=O)F [Compound 71] with its measured IC50.
20.8
